Test system: YVAD-AMC (SEQ ID NO:8)
Assay: cleavage of fluorogenic peptide YVAD-AMC by bacterial extracts expressing GST-fusion enzymes
Assay type: biochemical
Settings: total bacterial extracts, GST-fusion proteins

[
  {
    "molecule": "ICEγ: isoform of interleukin-1 β converting enzyme (ICE), expressed as GST-fusion protein (protein) MADKVLKEKRKLFIRSMGEAPQAVQDNPAMPTSSGSEGNVKLCSLEEAQRIWKQKSAEIYPIMDKSSRTRLALIICNEEFDSIPRRTGAEVDITGMTMLLQNLGYSVDVKKNLTASDMTTELEAFAHRPEHKTSDSTFLVFMSHGIREGICGKKHSEQVPDILQLNAIFNMLNTKNCPSLKDKPKVIIIQACRGDSPGVVWFKDSVGVSGNLSLPTTEEFEDDAIKKAHIEKDFIAFCSSTPDNVSWRHPTMGSVFIGRLIEHMQEYACSCDVEEIFRKVRFSFEQPDGRAQMPTTERVTLTRCFYLFPGH",
    "ability to cleave the YVAD substrate": "able to cleave"
  },
  {
    "molecule": "CPP32: human Cpp32 (Mch1) apoptotic cysteine protease, expressed as GST-fusion protein (protein) MENTENSVDSKSIKNLEPKIIHGSESMDSGISLDNSYKMDYPEMGLCIIINNKNFHKSTGMTSRSGTDVDAANLRETFRNLKYEVRNKNDLTREEIVELMRDVSKEDHSKRSSFVCVLLSHGEEGIIFGTNGPVDLKKITNFFRGDRCRSLTGKPKLFIIQACRGTELDCGIETDSGVDDDMACHKIPVEADFLYAYSTAPGYYSWRNSKDGSWFIQSLCAMLKQYADKLEFMHILTRVNRKVATEFESFSFDATFHAKKQIPCIVSMLTKELYFYH",
    "ability to cleave the YVAD substrate": "able to cleave"
  }
]
